molecular target: SbCOMT (caffeic acid O-methyltransferase) (Sorghum bicolor, UniProt C5YH12); construct: gene SORBI_3007G047300; residues 2–362; assay: ITC; […]ʹ-O-methylation enzyme assay; type: binding
Sequence (C5YH12 2-362): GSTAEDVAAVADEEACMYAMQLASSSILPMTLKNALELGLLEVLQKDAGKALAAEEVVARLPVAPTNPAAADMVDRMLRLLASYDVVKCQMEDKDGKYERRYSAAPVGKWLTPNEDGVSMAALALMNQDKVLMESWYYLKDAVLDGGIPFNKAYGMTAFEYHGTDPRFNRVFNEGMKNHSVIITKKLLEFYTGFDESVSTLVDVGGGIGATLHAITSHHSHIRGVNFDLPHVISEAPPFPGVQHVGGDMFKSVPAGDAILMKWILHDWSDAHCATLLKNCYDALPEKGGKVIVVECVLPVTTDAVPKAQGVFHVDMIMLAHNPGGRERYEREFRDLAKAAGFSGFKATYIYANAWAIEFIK
assay_endpoint: pKd
Notebook: values listed as pKd are -log10 of the concentration (mol/L).

In plain terms, Oc1cc(O)cc(/C=C/c2ccc(O)c(O)c2)c1 has a documented pKd of 5.90

###

target: SbCOMT (caffeic acid O-methyltransferase) (Sorghum bicolor); construct: gene SORBI_3007G047300; residues 2–362; experiment: ITC; type: binding; settings: read-out: SbCOMT
assay_endpoint: Kd (µM)
Please reply with the bare figure in µM and do not write the unit itself.

In plain terms, COc1cc(/C=C/c2ccc(O)cc2)cc(OC)c1 has a documented Kd of 3.99

In plain terms, C[S+](CC[C@H](N)C(=O)[O-])C[C@H]1O[C@@H](n2cnc3c(N)ncnc32)[C@H](O)[C@@H]1O (some centres unmarked) has a documented Kd of 13

###

target: SbSOMT (stilbene O-methyltransferase) (Sorghum bicolor); construct: gene SORBI_3007G059100; residues 2–377; assay: ITC; X-ray crystal structure ([…] Å, ternary complex); enzyme kinetics (Km […]); format: binding
Sequence (A0A1B6PFV1 2-377): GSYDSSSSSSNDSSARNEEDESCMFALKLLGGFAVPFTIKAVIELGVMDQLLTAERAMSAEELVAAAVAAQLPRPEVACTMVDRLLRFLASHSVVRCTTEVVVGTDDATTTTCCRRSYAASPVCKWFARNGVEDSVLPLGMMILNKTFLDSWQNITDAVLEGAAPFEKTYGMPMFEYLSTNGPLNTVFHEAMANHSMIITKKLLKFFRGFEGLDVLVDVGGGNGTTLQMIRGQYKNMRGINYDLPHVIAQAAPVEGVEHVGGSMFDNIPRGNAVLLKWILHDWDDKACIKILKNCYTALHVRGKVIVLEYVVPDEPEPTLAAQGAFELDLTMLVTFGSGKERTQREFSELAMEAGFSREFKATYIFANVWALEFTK
assay_endpoint: pKd
Notebook: values listed as pKd are -log10 of the concentration (mol/L).

In plain terms, COc1cc(O)cc(/C=C/c2ccc(O)cc2)c1 [pinostilbene] has a documented pKd of 5.54

###

target: SbSOMT (stilbene O-methyltransferase) (Sorghum bicolor); construct: gene SORBI_3007G059100; residues 2–377; test: ITC; X-ray crystal structures (binary, and ternary with β-NAD at […] Å); methylation assay; format: binding
assay_endpoint: Kd (µM)
Please reply with the bare figure in µM and do not write the unit itself.

In plain terms, Oc1ccc(/C=C/c2cc(O)cc(O)c2)cc1 has a documented Kd of 4.69
